Exercise: state measured melting point for each of the molecules provided.

Example cases with answers are listed next.
melting point for `COc1cc2nc(-c3cc(C)c(OCC(N)=O)c(C)c3)[nH]c(=O)c2cc1OC` ? 354 to 356 °C

melting point for `COc1cc2nc(-c3ccc4c(c3)OCCO4)[nH]c(=O)c2cc1OC` ? 316.4 to 318.2 °C

melting point for `COc1cc2nc(-c3cc(C)c(O)c(C)c3)[nH]c(=O)c2cc1OC` ? > 300 °C

melting point for `COc1cc(OC)c2c(=O)[nH]c(-c3ccc(O)c(CCO)c3)nc2c1` ? 249 to 250.3 °C

Please look at the following molecule next.
melting point for `O=c1[nH]c(-c2ccc3c(c2)OCCO3)nc2ccccc12` ? 267 to 268 °C (dec.)
